- procedure summary: in vivo
- condition description: rat, sc
observation type: ED50 at 1 h (mg/kg)
Form entry: value (mg/kg) — number only.

IN: # lookup: ED50 at 1 h of O=C(CCCN1CCC(O)(c2ccc(Cl)cc2)CC1)c1ccc(F)cc1 [haloperidol, reference compound]
OUT: 0.15
